Test system: Fer (mouse);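 also: 11-residue human phosphosite peptides and single-mutation variants displayed on the E. coli surface, counted by deep sequencing, each peptide's frequency after selection divided by its frequency in the unselected input library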;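 also: frequency after pTyr selection over input frequency; kinase dosed for 20-30% of maximal phosphorylation in three min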
protocolText: phosphorylation enrichment, bacterial display (enrichment ratio); higher = better substrate or ligand; peptides without Tyr show the background
The threshold is inclusive: phosphorylation enrichment of exactly 0.5 counts as Fulfilled; values below receive Not fulfilled.

> print(dat)
                        residuecodes  experimentalsystem  categorylabel
 1  PMWHPYKADVT [TP53TG5_Y255_V257A]         Fer (mouse)      Fulfilled
 2        HESEIYCKVCF [CSRP3_Y57_YF]         Fer (mouse)      Fulfilled
 3     DTCPPYVLSQV [GJB4_Y237_G242V]         Fer (mouse)      Fulfilled
 4         SGEKPYKCSEC [ZNF543_Y283]         Fer (mouse)  Not fulfilled
 5            GEPLSYTRFSL [TFRC_Y20]         Fer (mouse)      Fulfilled
 6           SGGSSYGSGGG [KRT1_Y532]         Fer (mouse)  Not fulfilled
 7       GSIQQYIFKQE [PRG4_Y1271_YF]         Fer (mouse)  Not fulfilled
 8     IGMSSYVMLAS [GGCX_Y301_F299S]         Fer (mouse)      Fulfilled
 9        SSPMKYQQNVS [EGFEM1P_Y160]         Fer (mouse)  Not fulfilled
10        YRQNVYIPGSN [PCDHGA1_Y895]         Fer (mouse)  Not fulfilled
11          PPSGEYFGQCG [TRIP6_Y275]         Fer (mouse)      Fulfilled
12        EPFKVYRIVPE [IRF8_Y110_YF]         Fer (mouse)  Not fulfilled
13      KTSGNYLPVTG [WDR19_Y28_A30P]         Fer (mouse)  Not fulfilled
14    TRSFDYMEGED [FGF7_Y58_G62E_YF]         Fer (mouse)      Fulfilled
15     KPNMNYDKLSQ [FLI1_Y332_R337Q]         Fer (mouse)  Not fulfilled
16  DFTEAYNSKIK [CLK1_Y305_P307S_YF]         Fer (mouse)  Not fulfilled
17   SSLEDYVRETN [GIMAP6_Y176_G171S]         Fer (mouse)  Not fulfilled
18    LAVVDYIRRQK [ATM_Y1915_M1916I]         Fer (mouse)      Fulfilled
19    LREIRYQGGNR [VWF_Y1570_V1565L]         Fer (mouse)      Fulfilled
20     QKFMAYPSQGG [HLCS_Y236_L237P]         Fer (mouse)      Fulfilled
21         LAETSYVKVLE [MAGEA1_Y276]         Fer (mouse)  Not fulfilled
22          IENPQYFSDAC [NTRK1_Y496]         Fer (mouse)      Fulfilled
23            LTFPDYLPCSV [SAG_Y129]         Fer (mouse)      Fulfilled
24    EQLRAYLEGEC [HLA-C_Y183_T187E]         Fer (mouse)      Fulfilled
25      DENWFYTQAAS [RPS19_Y54_R56Q]         Fer (mouse)  Not fulfilled
